Answer each item with its documented IC50.
State just the number; it will be interpreted in µM.

So what IC50 did CCCC(CC(=O)NO)C(=O)NC(CO)C(=O)NC(C(=O)O)C(C)C (centres unmarked) [BE-16627A] get with Thermolysin (Bacillus thermoproteolyticus)?
19.3

Notebook entry, Thermolysin (Bacillus thermoproteolyticus) assay: IC50 of CC(C)CC(CC(=O)NO)C(=O)NC(CO)C(=O)NC(C(=O)O)C(C)C (centres unmarked) [BE-16627B] = ?
2.4

---

# system-name: Trypsin (Bos taurus)
# Sequence (P00760 24-246): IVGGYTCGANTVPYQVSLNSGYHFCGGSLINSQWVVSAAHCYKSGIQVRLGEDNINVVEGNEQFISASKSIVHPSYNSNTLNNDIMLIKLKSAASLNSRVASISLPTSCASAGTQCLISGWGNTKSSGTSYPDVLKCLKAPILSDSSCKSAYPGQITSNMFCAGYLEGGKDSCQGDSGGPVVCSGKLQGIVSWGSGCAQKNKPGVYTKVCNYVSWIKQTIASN
# assay-explanation: Trypsin inhibition in vitro (substrate A: 3H casein)
# Assay type: biochemical
# applied-conditions: bovine
pIC50: −log10 of the molar value.
endpoint-name: pIC50

Lab note: need pIC50 with Trypsin (Bos taurus) for entry CC(C)CC(CC(=O)NO)C(=O)NC(CO)C(=O)NC(C(=O)O)C(C)C (centres unmarked) [BE-16627B] , please look it up.
< 3.58

Form field: pIC50 recorded for CCCC(CC(=O)NO)C(=O)NC(CO)C(=O)NC(C(=O)O)C(C)C (centres unmarked) [BE-16627A] with Trypsin (Bos taurus) (enter value)
< 3.56

---

# system-name: Papain (Carica papaya)
# Sequence (P00784 134-345): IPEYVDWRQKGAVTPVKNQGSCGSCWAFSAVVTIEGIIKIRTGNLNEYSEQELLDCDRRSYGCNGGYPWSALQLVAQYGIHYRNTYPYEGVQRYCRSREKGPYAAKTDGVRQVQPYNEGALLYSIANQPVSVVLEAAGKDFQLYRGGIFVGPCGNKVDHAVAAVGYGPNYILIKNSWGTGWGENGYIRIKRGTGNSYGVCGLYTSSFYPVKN
endpoint-name: IC50 (µM)
Write the answer as a number in µM, unit excluded.

Suppose we examine the compound CCCC(CC(=O)NO)C(=O)NC(CO)C(=O)NC(C(=O)O)C(C)C (centres unmarked) [BE-16627A] ; what IC50 value has been reported?
138

---

For each record, write down the corresponding IC50.

Record lookup: for UniProt:P00772, what IC50 belongs to CCCC(CC(=O)NO)C(=O)NC(CO)C(=O)NC(C(=O)O)C(C)C (centres unmarked) [BE-16627A] ?
> 276 µM

Report IC50 for CC(C)CC(CC(=O)NO)C(=O)NC(CO)C(=O)NC(C(=O)O)C(C)C (centres unmarked) [BE-16627B] tested on UniProt:P00772.
Sequence (P00772 27-266): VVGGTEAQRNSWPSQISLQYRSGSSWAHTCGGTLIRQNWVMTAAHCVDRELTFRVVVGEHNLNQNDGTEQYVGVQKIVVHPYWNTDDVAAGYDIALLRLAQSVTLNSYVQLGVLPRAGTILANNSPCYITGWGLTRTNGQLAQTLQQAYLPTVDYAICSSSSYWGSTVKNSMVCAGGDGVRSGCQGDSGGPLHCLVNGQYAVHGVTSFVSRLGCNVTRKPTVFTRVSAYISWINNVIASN
> 266 µM
